assay: Volume of distribution in Long Evans rat at 2 mg/kg, iv administered as single bolus dose; type: ADME, organism-based; design: dose 2 mg/kg, route intravenous; conditions: in vivo
recorded_endpoint: Vd (L/kg)
Give the value, in units of L/kg, as a plain number.

Per the records, this molecule ( CN(C)C(=O)c1ccc(-c2ccc3c(c2)CCN(CCN2CCCC2)C3=O)cc1.Cl ) has Vd equal to 2.1

###

assay: AUC (0 to infinity) in Long Evans rat at 10 mg/kg, po administered as single dose; type: ADME, organism-based; design: dose 10 mg/kg, route oral, time infinity; conditions: plasma
recorded_endpoint: AUC(0-inf) (ng·h/mL)
Respond with the bare value in ng·h/mL.

The value of AUC(0-inf) measured for the compound CN(C)C(=O)c1ccc(-c2ccc3c(c2)CCN(CCN2CCCC2)C3=O)cc1.Cl turned out to be 1650

###

test: Elimination half life in beagle dog at 2 mg/kg, iv administered as single bolus dose; assay type: ADME, organism-based, Canis lupus familiaris; design: dose 2 mg/kg, route intravenous; conditions: in vivo, read-out: beta t1/2 (converted)
recorded_endpoint: half-life

Short answer for CN(C)C(=O)c1ccc(-c2ccc3c(c2)CCN(CCN2CCCC2)C3=O)cc1.Cl : half-life was 1.6 h

###

Assignment: determine reported pIC50 for the given compounds.
Please note pIC50 is a logarithmic value: minus log10 of concentration in mol/L. Answer with that number alone.

Summary: O=C(NC1CCCC1)c1ccc(-c2ccc3c(c2)CCN(CCN2CCCC2)C3=O)cc1 , Voltage-gated inwardly rectifying potassium channel KCNH2 (Homo sapiens), pIC50 = 5.09

pIC50 value, target or system Voltage-gated inwardly rectifying potassium channel KCNH2 (Homo sapiens), for C[C@H]1CCCN1C(=O)c1ccc(-c2ccc3c(c2)CCN(CCN2CCCC2)C3=O)cc1 : 4.92

Noted pIC50 for O=C(c1ccc(-c2ccc3c(c2)CCN(CCN2CCCC2)C3=O)cc1F)N1CCCC1 , tested on Voltage-gated inwardly rectifying potassium channel KCNH2 (Homo sapiens): 5.06

Log: Voltage-gated inwardly rectifying potassium channel KCNH2 (Homo sapiens), compound O=C(NC1CCC1)c1ccc(-c2ccc3c(c2)CCN(CCN2CCCC2)C3=O)cc1 , pIC50 = 5.60

pIC50 for Voltage-gated inwardly rectifying potassium channel KCNH2 (Homo sapiens) with input CNC(=O)c1ccc(-c2ccc3c(c2)CCN(CCN2CCC[C@H]2C)C3=O)cc1 equals 4.77

Lab note: compound CN(C)C(=O)c1ccc(-c2ccc3c(c2)CCN(CCN2CCCC2)C3=O)c(F)c1 tested on Voltage-gated inwardly rectifying potassium channel KCNH2 (Homo sapiens); recorded pIC50 was 4.49

Item: C[C@@H]1CCCN1CCN1CCc2cc(-c3ccc(C#N)cc3)ccc2C1=O | System: Voltage-gated inwardly rectifying potassium channel KCNH2 (Homo sapiens) | pIC50: 6.85

Lab note: compound O=C(c1ccc(-c2ccc3c(c2)CCN(CCN2CCCC2)C3=O)cc1Cl)N1CCCC1 tested on Voltage-gated inwardly rectifying potassium channel KCNH2 (Homo sapiens); recorded pIC50 was 5.03

Form: item CCNC(=O)c1ccc(-c2ccc3c(c2)CCN(CCN2CCC[C@H]2C)C3=O)cc1 ; test system Voltage-gated inwardly rectifying potassium channel KCNH2 (Homo sapiens); pIC50: 5.13

Form field pIC50 for item O=C(c1ccc(-c2ccc3c(c2)CCN(CCN2CCCC2)C3=O)c(F)c1)N1CCCC1 on Voltage-gated inwardly rectifying potassium channel KCNH2 (Homo sapiens): 4.95

Known value: Voltage-gated inwardly rectifying potassium channel KCNH2 (Homo sapiens) pIC50 of the compound C[C@@H]1CCCN1CCN1CCc2cc(-c3ccc(F)cc3)ccc2C1=O equals 6.52

Log: Voltage-gated inwardly rectifying potassium channel KCNH2 (Homo sapiens), compound C[C@@H]1CCCN1C(=O)c1ccc(-c2ccc3c(c2)CCN(CCN2CCCC2)C3=O)cc1 , pIC50 = 4.98

For the compound O=C(NC1CC1)c1ccc(-c2ccc3c(c2)CCN(CCN2CCCC2)C3=O)cc1 , the measured pIC50 on Voltage-gated inwardly rectifying potassium channel KCNH2 (Homo sapiens) was 4.96

Where these numbers come from: ChEMBL document CHEMBL2029265
